Assay: NCI Yeast Anticancer Drug Screen. Data for the rad50 strain (AID 155);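 also: 0% = growth of vehicle-only cultures of the same strain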
Conditions: S. cerevisiae rad50 strain growth inhibition; at 50.0 µM; active compounds read high
Compounds without any hit were thinned out: in the full panel of roughly 79,000, 15% have a hit. Activity calls are given as the source filed them. Rule as the data show it: active = growth inhibition above about 70%; inactive = the rest.
MEASURED PARAMETER: growth inhibition

Below, 5 compounds whose answers are already recorded.
compound="CC(CN(C)C)C(/C=C/c1ccc(F)cc1)=N\\Nc1ccccc1 (stereo unspecified)" result="30.1% (inactive)"
compound=O=C(Nc1ccc(O)cc1O)c1ccccc1 result="85% (active)"
compound=O=C1C(Cl)=C(N2C(=O)CCCC2=O)C(=O)c2ccccc21 result="89.2% (active)"
compound="O=C(O)c1c2c(cc3c1CC1(Cc4ccccc4C1=O)C3)CCC2 (stereo unspecified)" result="81.2% (active)"
compound=CCCCOC(=O)C(=O)/C(=C/N1C(=O)/C(=C/C(C)=C/c2ccccc2)SC1=S)C(=O)C=C(C)C result="39.7% (inactive)"

Hi team, please reply with growth inhibition for each item in this list.
1. CCCCCCCCCCCCCC(=O)OCCCC1CCCO1 (stereo unspecified)
2. O=C1c2cccc(O)c2C(=O)c2c(O)cc(CO)cc21
3. O=C(Cl)C(c1ccccc1)(c1ccccc1)c1ccccc1

OUT:
8.55% (inactive)
87% (active)
98.2% (active)

* * *

Kindly supply the reported growth inhibition values for the records listed here.
Assay: NCI Yeast Anticancer Drug Screen. Data for the sgs1 mgt1 strain (AID 161);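 also: 0% = growth of cultures given vehicle only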
Conditions: S. cerevisiae sgs1 mgt1 strain, at 50.0 µM, active compounds read high
This is part of a sample that, as a whole, favours compounds with a hit. Of some 79,000 tested, about 15% had one in any assay.
Answers are plain numbers, in %.

mol_smiles=Cc1ccc2[nH]c3c(c2c1)[n+]([O-])c1ccccc1[n+]3[O-] measured_parameter="growth inhibition" recorded_number=5.8

Hi team, please reply with growth inhibition for each item in this list.
1. Cc1ncn(-c2ccccc2O)c1C
2. FC(F)(F)c1cccc(COCCN2CCN(Cc3cccc(C(F)(F)F)c3)CC2)c1
3. CSc1nc2ccccc2s1
4. N#CC1=C(C#N)Sc2nc3cc(Cl)ccc3nc2S1
5. CC[C@H]1CN2CCc3cc(OC)c(OC)cc3[C@@H]2C[C@@H]1C[C@H]1NCCc2cc(OC)c(OC)cc21

OUT:
1: -28.7; 2: 99.1; 3: -19.4; 4: 77.9; 5: 4

* * *

Test: NCI Yeast Anticancer Drug Screen. Data for the cln2 rad14 strain (AID 165);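 also: 0% = growth equal to vehicle treated cultures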
Conditions: S. cerevisiae cln2 rad14 strain, at 5.0 µM (retest, dose inferred, filed as 0.5), active compounds read high
The panel holds about 79,000 compounds, 15% with a hit somewhere; the sample as a whole holds those more often.
MEASURED PARAMETER: growth inhibition (%)
Answers are plain numbers, in %.

Below, 3 compounds whose answers are already recorded.
compound=CCOc1ccc2nc(Cl)sc2c1 recorded_number=31
compound=NS(=O)(=O)c1ccc(NC(=S)/N=C/c2c(O)c3ccccc3[nH]c2=O)cc1 recorded_number=3
compound="CCCCOCN(CC(CC)CCCC)CC(CC)CCCC (stereo not given)" recorded_number=4

Hi team, please reply with growth inhibition for each item in this list.
1. C=CS(=O)(=O)c1ccc([N+](=O)[O-])cc1
2. Fc1ccc(NC(=S)SCc2ccco2)cc1
3. CCc1ccc2ccc3ccc(CC)nc3c2n1
4. CCCCCN(CCCCC)C(=O)CCl
5. S=c1[nH]nc(SCc2ccc(Cl)c(Cl)c2)c2[nH]cnc12
6. C/C(=N/O)C1CC(CCC2([N+](=O)[O-])CCC(C)(O)C(/C(C)=N/O)C2)([N+](=O)[O-])CCC1(C)O (stereo not given)

OUT:
1: -16; 2: 1; 3: 72; 4: 8; 5: -10; 6: 5
